meta.source: the supplement of paper PMC11246515

Consider the following sequences and their measured total protein half-life in vivo readings.
Assay: total protein half-life in vivo (active degradation + dilution); higher = more stable protein
Conditions: wild type E. coli NCM3722; growth: C-lim chemostat; doubling time 6 h
Express your answer in h, writing the number without its unit.

CHAIN SEQUENCE	total protein half-life in vivo / h
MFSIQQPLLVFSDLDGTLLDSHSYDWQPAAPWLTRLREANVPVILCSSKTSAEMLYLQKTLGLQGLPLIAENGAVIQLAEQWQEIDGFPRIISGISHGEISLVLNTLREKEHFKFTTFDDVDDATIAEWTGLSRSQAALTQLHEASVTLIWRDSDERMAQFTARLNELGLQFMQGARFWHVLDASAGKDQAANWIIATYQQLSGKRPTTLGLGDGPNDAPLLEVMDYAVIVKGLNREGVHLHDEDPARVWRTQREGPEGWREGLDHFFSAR	5.25

# context switch: different sequence, same total protein half-life in vivo
So for MTNNPLIPQSKLPQLGTTIFTQMSALAQQHQAINLSQGFPDFDGPRYLQERLAHHVAQGANQYAPMTGVQALREAIAQKTERLYGYQPDADSDITVTAGATEALYAAITALVRNGDEVICFDPSYDSYAPAIALSGGIVKRMALQPPHFRVDWQEFAALLSERTRLVILNTPHNPSATVWQQADFAALWQAIAGHEIFVISDEVYEHINFSQQGHASVLAHPQLRERAVAVSSFGKTYHMTGWKVGYCVAPAPISAEIRKVHQYLTFSVNTPAQLALADMLRAEPEHYLALPDFYRQKRDILVNALNESRLEILPCEGTYFLLVDYSAVSTLDDVEFCQWLTQEHGVAAIPLSVFCADPFPHKLIRLCFAKKESTLLAAAERLRQL , the logged total protein half-life in vivo turned out to be 3.9

====

Assay: total protein half-life in vivo (active degradation + dilution); higher = more stable protein
Settings: wild type E. coli NCM3722; growth: N-lim chemostat; doubling time 12 h
Consider the following sequences and their measured total protein half-life in vivo readings.

CHAIN SEQUENCE	total protein half-life in vivo
MKLTTHHLRTGAALLLAGILLAGCDQSSSDAKHIKVGVINGAEQDVAEVAKKVAKEKYGLDVELVGFSGSLLPNDATNHGELDANVFQHRPFLEQDNQAHGYKLVAVGNTFVFPMAGYSKKIKTVAQIKEGATVAIPNDPTNLGRALLLLQKEKLITLKEGKGLLPTALDITDNPRHLQIMELEGAQLPRVLDDPKVDVAIISTTYIQQTGLSPVHDSVFIEDKNSPYVNILVAREDNKNAENVKEFLQSYQSPEVAKAAETIFNGGAVPGW	12.6 h
MATTQQSGFAPAASPLASTIVQTPDDAIVAGFTSIPSQGDNMPAYHARPKQSDGPLPVVIVVQEIFGVHEHIRDICRRLALEGYLAIAPELYFREGDPNDFADIPTLLSGLVAKVPDSQVLADLDHVASWASRNGGDVHRLMITGFCWGGRITWLYAAHNPQLKAAVAWYGKLTGDKSLNSPKQPVDIATDLNAPILGLYGGQDNSIPQESVETMRQALRAANAKAEIIVYPDAGHAFNADYRPSYHAASAEDGWQRMLEWFKQYGGKKSL	5.35 h

# context switch: different sequence, same total protein half-life in vivo
So for MIRQRRRALTPEQQQEMGQQAATRMMTYPPVVMAHTVAVFLSFDGELDTQPLIEQLWRAGKRVYLPVLHPFSAGNLLFLNYHPQSELVMNRLKIHEPKLDVRDVLPLSRLDVLITPLVAFDEYGQRLGMGGGFYDRTLQNWQHYKTQPVGYAHDCQLVEKLPVEEWDIPLPAVVTPSKVWEW [P0AC28] , the logged total protein half-life in vivo turned out to be 4.35 h
